Reference source: patent US7045320B2

target: TrpE5 mutant anthranilate synthase (Escherichia coli, UniProt P00895, P21S); construct: endogenous in cells; test: Ki value of anthranilate synthase (AS) to L-tryptophan, TrpE5
pKi: −log10 of the molar value.
Property label: pKi

Smi | Property label | Observed value
N[C@@H](Cc1c[nH]c2ccccc12)C(=O)O | pKi | 2.52

###

molecular target: TrpE0 mutant anthranilate synthase (Escherichia coli, UniProt P00895, K50E); construct: endogenous in cells; assay: Ki value of anthranilate synthase (AS) to L-tryptophan, TrpE0

Smi | System under test | Ki / µM
N[C@@H](Cc1c[nH]c2ccccc12)C(=O)O | TrpE0 mutant anthranilate synthase (Escherichia coli, UniProt P00895, K50E) | 100
